experiment: Liver microsomes stability; type: in vitro ADME, human; settings: 1 μM compound, 1 mg/mL human liver microsomes, 1 mM NADPH; read-out: T½ of HLM

[
  {
    "COMPOUND": "[2H]C([2H])([2H])Oc1cc(C(=O)Nc2cc3c(cc2Oc2cc(C)cc(C)c2)C(=O)N(C)[C@@H](CC(=O)N(OC([2H])([2H])[2H])C([2H])([2H])[2H])C(=O)N3)c(Br)c(OC([2H])([2H])[2H])c1OC([2H])([2H])[2H] [Compound 34]",
    "half-life at 1 μM / min": 72.2
  },
  {
    "COMPOUND": "[2H]C([2H])([2H])Oc1cc(C(=O)Nc2cc3c(cc2Oc2cc(C)cc(C)c2)C(=O)N[C@@H](CC(=O)N(C)O)C(=O)N3)c(Br)c(OC([2H])([2H])[2H])c1OC([2H])([2H])[2H] [Compound 31]",
    "half-life at 1 μM / min": 43.3
  },
  {
    "COMPOUND": "[2H]C([2H])([2H])Oc1cc(C(=O)Nc2cc3c(cc2Oc2cc(C)cc(C)c2)C(=O)N(C)[C@@H](CC(=O)N2CCN(C)CC2)C(=O)N3)c(Br)c(OC([2H])([2H])[2H])c1OC([2H])([2H])[2H] [Compound 28]",
    "half-life at 1 μM / min": 41.8
  },
  {
    "COMPOUND": "[2H]C([2H])([2H])Oc1cc(C(=O)Nc2cc3c(cc2Oc2cc(C)cc(C)c2)C(=O)N[C@@H](CC(=O)C(C)(C)P(=O)(OC)OC)C(=O)N3)c(Br)c(OC([2H])([2H])[2H])c1OC([2H])([2H])[2H] [Compound 26]",
    "half-life at 1 μM / min": 217
  },
  {
    "COMPOUND": "[2H]C([2H])([2H])Oc1cc(C(=O)Nc2cc3c(cc2Oc2cc(C)cc(C)c2)C(=O)N(C)[C@@H](CC(=O)N(C)OC)C(=O)N3)c(Br)c(OC([2H])([2H])[2H])c1OC([2H])([2H])[2H] [Compound 32]",
    "half-life at 1 μM / min": 24.7
  }
]

----------
assay: Liver microsomes stability; type: in vitro ADME, human; conditions: 1 μM compound, 1 mg/mL human liver microsomes, 1 mM NADPH
Listing of entries alongside the reported microsomal CLint at 1 μM.
EXPERIMENTAL ENDPOINT: microsomal CLint at 1 μM (µL/min/mg)

[
  {
    "MOL": "[2H]C([2H])([2H])N1C(=O)c2cc(Oc3cc(C)cc(C)c3)c(NC(=O)c3cc(OC)c(OC)c(OC)c3Br)cc2NC(=O)[C@@H]1CC(=O)N(CC)CC",
    "UNIT TAG": "µL/min/mg",
    "OBSERVED RESULT": 65.1
  },
  {
    "MOL": "[2H]C([2H])([2H])Oc1cc(C(=O)Nc2cc3c(cc2Oc2cc(C)cc(C)c2)C(=O)N(C)[C@@H](CC(=O)N2CCC(F)(F)CC2)C(=O)N3)c(Cl)c(OC([2H])([2H])[2H])c1OC([2H])([2H])[2H]",
    "UNIT TAG": "µL/min/mg",
    "OBSERVED RESULT": 34.5
  },
  {
    "MOL": "[2H]C([2H])([2H])Oc1cc(C(=O)Nc2cc3c(cc2Oc2cc(C)cc(C)c2)C(=O)N(C)[C@@H](CC(=O)N(OC([2H])([2H])[2H])C([2H])([2H])[2H])C(=O)N3)c(Cl)c(OC([2H])([2H])[2H])c1OC([2H])([2H])[2H]",
    "UNIT TAG": "µL/min/mg",
    "OBSERVED RESULT": 13.7
  },
  {
    "MOL": "[2H]C([2H])([2H])Oc1cc(C(=O)Nc2cc3c(cc2Oc2cc(C)cc(C)c2)C(=O)N[C@@H](CC(=O)N(C)OC)C(=O)N3)c(Cl)c(OC([2H])([2H])[2H])c1OC([2H])([2H])[2H]",
    "UNIT TAG": "µL/min/mg",
    "OBSERVED RESULT": 11.7
  }
]
